# System: rodent lifetime carcinogenesis bioassay, tumor incidence TD50
# method.description: carcinogenic potency in animals, long-term in vivo studies, CPDB compilation (AID 1745844)
# experimental.context: mouse; strain B6C3F1; females; in feed; site: all sites + liver; lesion: hemangiosarcoma + hepatocellular adenoma + hepatocellular carcinoma; dosed 78 weeks; study length 91 weeks
measurement.kind: TD50 (mg/kg/day)
Could you give me the number in mg/kg/day? Just the number is fine.

Asked: What reported TD50 corresponds to Cc1ccc(Cl)cc1N on rodent lifetime carcinogenesis bioassay, tumor incidence TD50?
Given back: 143

###

# Test system: rodent lifetime carcinogenesis bioassay, tumor incidence TD50
# method.description: carcinogenic potency in animals, long-term in vivo studies, CPDB compilation (AID 1745844)
# experimental.context: rat; strain Sprague-Dawley Spartan; males; in drinking water; site: liver; lesion: hepatocellular carcinoma; dosed 104 weeks; study length 104 weeks
Activity calls are given as the source filed them. How the calls were made is not given here.
measurement.kind: TD50

Asked: So what's the measured TD50 for this one? C=C(Cl)Cl
Given back: 22900 mg/kg/day (inactive)

###

# Tested on: rodent lifetime carcinogenesis bioassay, tumor incidence TD50
# method.description: carcinogenic potency in animals, long-term in vivo studies, CPDB compilation (AID 1745844)
# experimental.context: rat; strain Fischer 344; females; in feed; site: all sites + liver + stomach + Zymbal's gland; lesion: hemangiosarcoma + hepatocellular carcinoma + neoplastic nodule + squamous-cell carcinoma + squamous-cell papilloma + ceruminous ca; dosed 78 weeks; study length 106 weeks
measurement.kind: TD50 (mg/kg/day)
Could you give me the number in mg/kg/day? Just the number is fine.

Asked: What reported TD50 corresponds to [O-]/[N+](=N\O)c1ccccc1 on rodent lifetime carcinogenesis bioassay, tumor incidence TD50?
Given back: 14.1

###

# System: rodent lifetime carcinogenesis bioassay, tumor incidence TD50
# method.description: carcinogenic potency in animals, long-term in vivo studies, CPDB compilation (AID 1745844)
# experimental.context: rat; strain Fischer 344; males; inhaled; site: nasal cavity; lesion: squamous-cell papilloma; dosed 52 weeks; study length 130 weeks
measurement.kind: TD50

Asked: So what's the measured TD50 for this one? NN
Given back: 6.1 mg/kg/day

###

# Test system: rodent lifetime carcinogenesis bioassay, tumor incidence TD50
# method.description: carcinogenic potency in animals, long-term in vivo studies, CPDB compilation (AID 1745844)
# experimental.context: rat; strain Fischer 344; males; in feed; site: colon + rectum; lesion: adenomatous polyp; dosed 12 weeks; study length 103 weeks
measurement.kind: TD50 (mg/kg/day)
Could you give me the number in mg/kg/day? Just the number is fine.

Asked: So what's the measured TD50 for this one? OCC(CO)(CBr)CBr
Given back: 152

###

# Tested on: rodent lifetime carcinogenesis bioassay, tumor incidence TD50
# method.description: carcinogenic potency in animals, long-term in vivo studies, CPDB compilation (AID 1745844)
# experimental.context: rat; strain Sprague-Dawley; females; by gavage; site: uterus; lesion: sarcoma; dosed 167 weeks; study length 167 weeks
measurement.kind: TD50

Asked: So what's the measured TD50 for this one? CC/C(=C(\c1ccccc1)c1ccc(OCCN(C)C)cc1)c1ccccc1
Given back: 487 mg/kg/day

###

molecules and their reported TD50
# Test system: rodent lifetime carcinogenesis bioassay, tumor incidence TD50
# method.description: carcinogenic potency in animals, long-term in vivo studies, CPDB compilation (AID 1745844)
# experimental.context: mouse; strain B6C3F1; males; by gavage; site: liver; lesion: hepatocellular adenoma; dosed 103 weeks; study length 104 weeks

CCCC(Cl)CCCC(Cl)CCC(Cl)CCC(Cl)CCC(Cl)CCCC(Cl)CCC (centres undefined)
157 mg/kg/day

Asked: So what's the measured TD50 for this one? ClCC(Cl)(Cl)Cl
Given back: 190 mg/kg/day

Asked: Now the same for c1ccc2occc2c1
Given back: 20.5 mg/kg/day

Asked: Now the same for O=Cc1ccco1
Given back: 207 mg/kg/day
